Below: a set of entries, each annotated with reported melting point.

Here are 2 compounds together with their reported answers.
CCNc1nc(C)c(-c2ccnc(Nc3ccc(N4CCOCC4)c(C)c3)n2)s1 | 213 to 214 °C
CS(=O)(=O)c1ccc([C@@H](CC2CCCC2)C(=O)Nc2nc3ccccc3s2)cc1 | 100 to 105 °C

Next, consider the following compound.
INPUT: Need melting point of c1ccc2c(-n3cncn3)ccnc2c1 , thanks.
OUTPUT: 147 to 149 °C

----------
quantity-measured: melting point (°C)

(I) O=Cc1ccccc1OCCOc1ccccc1C=O
(II) CC1C(=O)c2cc([N+](=O)[O-])ccc2OC1(C)C (centres undefined)
INPUT: Pick one: I or II . Which one has the lower reported melting point? Identify your selection by its label.
OUTPUT: II

----------
quantity-measured: melting point

O=c1[nH]c2cc(Cl)ccc2c(=O)n1S(=O)(=O)c1ccc(Cl)cc1 | 286 to 287 °C
CN=C(NC#N)NCCSCc1[nH]cnc1Br | 144 to 146 °C
CC#CCNC(=C[N+](=O)[O-])NCCSCc1[nH]cnc1C | 148 to 151 °C
COc1ccc(-c2c(Cl)c(CN3CCCC3=O)nc3sc4c(c23)CCN(Cc2ccccc2)C4)cc1OC | 139 to 140 °C
O=C(NC1=NCCS1)c1c(C(F)(F)F)nc(-c2ccccc2)c(-c2ccccc2)c1O | 280 °C

INPUT: Consider the molecule CCCc1nc2c(N)nc3ccccc3c2n1CCCCN(OC)S(C)(=O)=O and give its measured melting point.
OUTPUT: 178 to 188 °C

INPUT: I am curious: what melting point value has been reported for NCCc1ccc(N2CCN(c3ccc(CC(=O)O)cc3)C2=O)cc1 ?
OUTPUT: > 250 °C

INPUT: Which melting point value belongs to CCCCc1oc2ccc([N+](=O)[O-])cc2c1C(=O)c1ccc(OCCCCCN(CCCC)CCCC)cc1 ?
OUTPUT: 107 °C

----------
quantity-measured: melting point

Known results for compounds:
NS(=O)(=O)N1CCC(F)(F)CC1 | 111 to 112 °C
CCN(CC)CC1CCCCN1CCNC(=O)N1c2ccccc2NC(=O)c2ccccc21 (centres undefined) | 123 to 125 °C

INPUT: For the compound NC(=O)Nc1ccc2c(OCc3ccccc3-c3ccccc3)cccc2c1 , what melting point is on record?
OUTPUT: 159 to 161 °C

INPUT: I'd like to know its melting point. The compound in question is COC(=O)c1cccc2c1CC(c1csc(-c3ccncc3)n1)C(=O)N2 (centres undefined)
OUTPUT: 230 to 231 °C

INPUT: Value lookup for melting point; key = CC1(C)CC(=O)N(c2ccc(OC(=O)N3CCc4ccccc4C3)nc2)C(=O)C1
OUTPUT: 156 to 158 °C

INPUT: // query melting point value for entry CN1CCN(c2cc([N+](=O)[O-])ccc2Cl)CC1
OUTPUT: 63 to 64 °C

INPUT: Need melting point of CCCCNC(=O)COC1C(O)C(CO)OC(Oc2ccc(N)cc2)C1O (centres undefined) , thanks.
OUTPUT: 135 °C

INPUT: State the recorded melting point for this entry: Cn1c([N+](=O)[O-])cnc1COc1ccc([N+](=O)[O-])cc1
OUTPUT: 150 °C

INPUT: Could you share which melting point value was measured for Cn1nnnc1-c1cn(C)c2cc(C#N)ccc2c1=O ?
OUTPUT: 301 to 303 °C

// data source = a melting point compilation (Tetko et al.; mined from patent text by program, amines drawn as free bases though some values may be those of a salt)
